Just for reference, the RNAGym collection of RNA variant scans (doi:10.1093/nar/gkz1192) is where these values come from.

B1: CPEB3 Ribozyme (parent)
chain: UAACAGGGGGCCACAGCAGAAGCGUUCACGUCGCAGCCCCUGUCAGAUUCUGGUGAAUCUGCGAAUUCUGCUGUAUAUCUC

# Variants of: B1
# ASSAY_SUMMARY: self-cleavage, relative activity (ratio to wild type); higher = more cleavage; in vitro, sequencing
Reported values of self-cleavage for individual entries

Worked cases, answers included:
var="U31A C38U" readout_value=0.53
var="U49C U66A" readout_value=0.31
var="G73A U76C" readout_value=1.26
var="G7A U54A" readout_value=0.47
var="G6U G7A" readout_value=0.33

Query: Tell me the measured self-cleavage of G30U C40U , please.
Result: 0.2

Query: Data request, read-out self-cleavage, for U51A U78C
Result: 0.83

Query: Which self-cleavage reading was recorded for the variant A3G A65U ?
Result: 0.25

Query: Any idea what its self-cleavage is? The variant is A28G G30A
Result: 0.2

Query: I am curious: what self-cleavage value has been reported for A15C G24A ?
Result: 0.18

Query: What value of self-cleavage has been reported for the following variant? G10A U80A
Result: 0.06

Query: Item G10A G53A has what recorded self-cleavage?
Result: 0.29

Query: Which value of self-cleavage has been reported for A20G C71G in the records?
Result: 0.14

Query: Endpoint output: self-cleavage of A47C U74C . Value?
Result: 0.7

Query: Entry under review: G7A A45G . Reported self-cleavage?
Result: 0.16

Query: Name the reported self-cleavage value associated with the variant C40U C71A
Result: 0.17

Query: Returns the measured self-cleavage for the input variant. Input: A15U C29U
Result: 0.5

Query: Which self-cleavage is reported for this variant? U31C G53U
Result: 1.06

Query: I would be grateful if you could share the reported self-cleavage for U43G U78C .
Result: 0.28

Query: Quick one: self-cleavage for C32U A47U ?
Result: 0.32

Query: Please look up its self-cleavage: U25A U41C
Result: 0.28
